target: alanyl aminopeptidases (APN) (Homo sapiens); test: Inhibition of alanyl aminopeptidase enzymatic activity, fluorogenic substrate (Ala)2-rhodamine 110; type: biochemical; details: Table 3, unstarred values; read-out: IC50APN
Sequence (P15144 whole entry, species assumed): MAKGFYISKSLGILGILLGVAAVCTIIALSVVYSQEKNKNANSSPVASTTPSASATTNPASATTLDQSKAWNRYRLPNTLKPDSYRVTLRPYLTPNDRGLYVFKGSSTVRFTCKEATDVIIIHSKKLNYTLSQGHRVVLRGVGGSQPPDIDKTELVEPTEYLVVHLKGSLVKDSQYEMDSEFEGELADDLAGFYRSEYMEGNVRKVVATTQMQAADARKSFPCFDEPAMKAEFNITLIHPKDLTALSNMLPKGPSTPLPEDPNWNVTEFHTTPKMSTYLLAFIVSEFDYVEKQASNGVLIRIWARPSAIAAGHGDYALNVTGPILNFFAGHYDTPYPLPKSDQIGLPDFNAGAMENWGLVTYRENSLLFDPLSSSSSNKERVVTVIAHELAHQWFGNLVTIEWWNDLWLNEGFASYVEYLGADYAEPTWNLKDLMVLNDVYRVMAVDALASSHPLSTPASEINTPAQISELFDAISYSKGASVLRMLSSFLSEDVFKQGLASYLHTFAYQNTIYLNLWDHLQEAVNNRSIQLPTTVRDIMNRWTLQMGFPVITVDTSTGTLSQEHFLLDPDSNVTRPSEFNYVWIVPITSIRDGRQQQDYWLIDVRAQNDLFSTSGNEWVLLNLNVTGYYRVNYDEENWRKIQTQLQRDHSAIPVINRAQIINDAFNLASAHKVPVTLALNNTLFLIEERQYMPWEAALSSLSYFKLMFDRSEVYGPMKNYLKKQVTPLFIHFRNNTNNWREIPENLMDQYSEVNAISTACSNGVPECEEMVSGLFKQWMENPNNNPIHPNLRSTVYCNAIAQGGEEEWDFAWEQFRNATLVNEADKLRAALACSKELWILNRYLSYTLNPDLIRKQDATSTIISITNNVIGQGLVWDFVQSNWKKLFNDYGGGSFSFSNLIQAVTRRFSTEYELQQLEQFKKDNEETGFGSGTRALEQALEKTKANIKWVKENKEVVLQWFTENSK
pIC50: −log10 of the molar value.
PARAMETER: pIC50

The examples below pair each entry with its known result.
{"COMPOUND": "CN(C)c1ccc(C2C3C(=O)N(c4ccccc4)C(=O)C3ON2c2ccc(Cl)cc2)cc1 (stereo not shown) [A3.104]", "SUBJECT_OF_TEST": "alanyl aminopeptidases (APN) (Homo sapiens)", "pIC50": 4.70}
{"COMPOUND": "O=C(COc1ccc2ccccc2c1)N/N=C/c1ccco1 [A3.062]", "SUBJECT_OF_TEST": "alanyl aminopeptidases (APN) (Homo sapiens)", "pIC50": 4.86}
{"COMPOUND": "CC(C)Oc1ccc(Br)cc1C(=O)N/N=C/c1ccco1 [A3.248]", "SUBJECT_OF_TEST": "alanyl aminopeptidases (APN) (Homo sapiens)", "pIC50": 4.33}
{"COMPOUND": "O=C(/C=C/c1ccco1)c1ccccc1 [A3.166]", "SUBJECT_OF_TEST": "alanyl aminopeptidases (APN) (Homo sapiens)", "pIC50": 4.56}
{"COMPOUND": "CC1=C(C#N)C(=O)N(CC(C)O)C(=O)/C1=C/c1ccc(-c2cccc(Cl)c2C)o1 (stereo not shown) [A3.175]", "SUBJECT_OF_TEST": "alanyl aminopeptidases (APN) (Homo sapiens)", "pIC50": 4.54}

P: CCOC(=O)C1=C(N)NC2=C(CCCC2)C12C(=O)Nc1ccccc12 (stereo not shown) [A3.202]
Q: Cc1ccc(C(=O)N/C(=C\c2ccco2)C(=O)N2CC3CC(C2)c2cccc(=O)n2C3)cc1 (stereo not shown) [A3.042]
R: Cc1ccc(/C=N/NC(=O)c2ccccc2Cl)o1 [A3.084]
S: O=C(N/N=C/c1ccco1)c1cccc(Br)c1 [A3.283]
Rank ascending by pIC50. Returns: the labels listed in the requested order.
S, P, R, Q
(S: 4.20, P: 4.47, R: 4.75, Q: 4.96)

* * *

Molecular target: UniProt P15144
Assay: Inhibition of alanyl aminopeptidase enzymatic activity, fluorogenic substrate (Ala)2-rhodamine 110
Format: biochemical
Conditions: Table 3, unstarred values; read-out: IC50APN
Procedure: The inhibition characteristics measured are referred to as IC-50 values or ID50 values (the latter marked with “*”) for said enzyme. The enzymatic activity was determined by means of the fluorogenic substrate/product (Ala)2-rhodamine 110.
PARAMETER: IC50 (µM)

{"COMPOUND": "Cc1ccc(/C=N/NC(=O)COc2ccc(Cl)cc2)o1", "IC50 (µM)": 16}
{"COMPOUND": "NCCCNC(=O)C1Cc2ncn(Cc3ccccc3[N+](=O)[O-])c2CN1Cc1ccccn1 (stereo not drawn)", "IC50 (µM)": 138}
{"COMPOUND": "COc1cc(Br)ccc1OCC(=O)N/N=C/c1cc(Br)c(O)c(O)c1Br", "IC50 (µM)": 20.5}
{"COMPOUND": "O=C(Nc1cccc(/N=C/c2cc(/N=N\\c3ccccc3Cl)ccc2O)c1)c1ccco1", "IC50 (µM)": 3.6}
{"COMPOUND": "COc1ccc(/C(C)=N/NC(=O)CNC(=O)/C=C\\c2ccco2)cc1", "IC50 (µM)": 29.4}
{"COMPOUND": "Cc1ccc(OCC(=O)N/N=C/c2ccco2)cc1C", "IC50 (µM)": 36.3}
{"COMPOUND": "Cc1ccc(C(=O)N/C(=C\\c2ccco2)C(=O)N2CCSCC2)cc1C", "IC50 (µM)": 68.9}

1: CCCOc1[nH]c(/N=C/c2ccccc2)c(C#N)c1C#N
2: CCOC(=O)c1cc(-c2ccc(/C=C3\C(=O)N(CCCO)C(=O)C(C#N)=C3C)o2)ccc1Cl
Which value of IC50 is numerically greater: that of 1 or that of 2 ? Please identify the chosen entry by its label.
2
